- MEASURED ON: RPS12 (UniProt P25398)
- ASSAY OVERVIEW: Kd (EC50 corrected by depletion factor)
QUANTITY NAME: pKd
Convention used: pKd is expressed as -log10 of the molar concentration.

[ask] State recorded pKd with RPS12 (UniProt P25398), entry CUGUCCU , no comment.
[reply] 6.89

====

- MEASURED ON: ZCCHC8 (UniProt Q6NZY4)
- Sequence: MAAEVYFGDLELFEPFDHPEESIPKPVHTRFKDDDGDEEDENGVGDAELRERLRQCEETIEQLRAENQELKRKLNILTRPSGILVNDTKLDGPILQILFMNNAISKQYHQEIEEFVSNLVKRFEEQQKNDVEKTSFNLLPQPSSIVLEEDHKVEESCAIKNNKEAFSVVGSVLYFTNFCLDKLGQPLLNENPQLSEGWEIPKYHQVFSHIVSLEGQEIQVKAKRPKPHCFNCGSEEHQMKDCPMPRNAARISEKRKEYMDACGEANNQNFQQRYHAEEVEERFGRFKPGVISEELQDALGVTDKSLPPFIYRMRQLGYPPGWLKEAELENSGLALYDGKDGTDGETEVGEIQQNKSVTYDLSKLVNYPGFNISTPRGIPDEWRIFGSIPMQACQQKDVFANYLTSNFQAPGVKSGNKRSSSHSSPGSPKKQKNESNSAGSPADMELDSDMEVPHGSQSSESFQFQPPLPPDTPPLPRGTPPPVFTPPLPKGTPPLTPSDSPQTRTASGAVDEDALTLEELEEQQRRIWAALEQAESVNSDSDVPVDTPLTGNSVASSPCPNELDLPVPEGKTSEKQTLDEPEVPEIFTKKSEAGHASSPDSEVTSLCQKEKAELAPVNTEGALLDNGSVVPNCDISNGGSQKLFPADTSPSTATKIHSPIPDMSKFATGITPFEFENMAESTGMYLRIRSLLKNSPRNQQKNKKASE
- ASSAY OVERVIEW: Kd (EC50 corrected by depletion factor)
Provide the reported Kd of each item.
State just the number; it will be interpreted in nM.

[ask] Using known records, supply Kd for UAUUUAU
[reply] 200

[ask] Given the sequence AAUAAA , write its reported Kd.
[reply] 190

[ask] # return recorded Kd for entry CUGUCCU
[reply] 1740

====

Would you kindly list Kd for each of these sequences?
- MEASURED ON: PHAX (UniProt Q9H814)
- Sequence (Q9H814 whole entry): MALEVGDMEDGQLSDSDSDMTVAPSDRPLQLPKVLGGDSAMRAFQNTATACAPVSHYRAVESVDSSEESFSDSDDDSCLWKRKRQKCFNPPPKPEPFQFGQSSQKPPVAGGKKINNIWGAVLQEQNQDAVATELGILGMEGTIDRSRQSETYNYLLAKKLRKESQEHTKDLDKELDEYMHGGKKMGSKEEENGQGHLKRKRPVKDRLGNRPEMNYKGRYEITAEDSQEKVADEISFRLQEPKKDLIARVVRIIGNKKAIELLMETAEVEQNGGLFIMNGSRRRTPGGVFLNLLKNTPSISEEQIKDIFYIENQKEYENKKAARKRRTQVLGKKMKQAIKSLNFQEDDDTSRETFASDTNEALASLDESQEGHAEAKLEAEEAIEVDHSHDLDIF
- ASSAY OVERVIEW: Kd (EC50 corrected by depletion factor)
API: value field is a number in µM; no unit string.

[ask] Read off the recorded Kd for UAUUUAU
[reply] 5.07

[ask] Report Kd, nothing else, for this sequence: AAUAAA
[reply] 15.5

[ask] Give recorded Kd. CUGUCCU
[reply] 0.533

====

- MEASURED ON: SF3B3 (UniProt Q15393)
- Sequence: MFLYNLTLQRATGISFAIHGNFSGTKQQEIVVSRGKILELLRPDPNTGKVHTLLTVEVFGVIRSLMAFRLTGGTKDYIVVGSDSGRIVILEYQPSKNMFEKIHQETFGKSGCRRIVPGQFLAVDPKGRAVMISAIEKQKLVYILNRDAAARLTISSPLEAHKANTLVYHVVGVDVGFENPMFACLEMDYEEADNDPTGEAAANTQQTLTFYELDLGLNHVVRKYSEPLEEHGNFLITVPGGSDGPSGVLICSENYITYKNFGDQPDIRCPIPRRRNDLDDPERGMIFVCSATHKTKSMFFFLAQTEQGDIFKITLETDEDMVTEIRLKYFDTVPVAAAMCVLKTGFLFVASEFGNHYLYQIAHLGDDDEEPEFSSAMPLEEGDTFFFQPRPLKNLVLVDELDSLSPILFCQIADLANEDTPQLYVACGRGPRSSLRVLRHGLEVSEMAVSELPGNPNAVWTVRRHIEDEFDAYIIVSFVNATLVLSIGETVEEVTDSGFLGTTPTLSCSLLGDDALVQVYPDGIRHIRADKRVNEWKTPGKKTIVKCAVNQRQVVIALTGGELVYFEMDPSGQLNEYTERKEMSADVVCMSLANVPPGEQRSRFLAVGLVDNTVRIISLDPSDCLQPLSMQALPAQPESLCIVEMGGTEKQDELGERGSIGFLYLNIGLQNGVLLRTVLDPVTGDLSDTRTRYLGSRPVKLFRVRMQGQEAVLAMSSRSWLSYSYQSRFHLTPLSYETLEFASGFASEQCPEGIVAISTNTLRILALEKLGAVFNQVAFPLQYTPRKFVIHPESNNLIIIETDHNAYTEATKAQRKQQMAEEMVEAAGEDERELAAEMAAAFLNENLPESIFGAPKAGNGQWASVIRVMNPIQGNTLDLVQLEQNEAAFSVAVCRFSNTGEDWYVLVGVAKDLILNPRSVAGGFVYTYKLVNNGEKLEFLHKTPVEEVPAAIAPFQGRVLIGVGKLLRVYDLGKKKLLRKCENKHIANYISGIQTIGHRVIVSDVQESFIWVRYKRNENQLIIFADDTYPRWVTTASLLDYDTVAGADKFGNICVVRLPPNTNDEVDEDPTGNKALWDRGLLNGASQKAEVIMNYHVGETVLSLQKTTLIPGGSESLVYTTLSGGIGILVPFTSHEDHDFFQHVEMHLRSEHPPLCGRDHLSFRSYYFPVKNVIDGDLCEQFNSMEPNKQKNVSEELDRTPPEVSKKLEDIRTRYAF
- ASSAY OVERVIEW: EC50 of free RNA motif oligo competing protein binding to immobilised probe
QUANTITY NAME: EC50

[ask] Determine its reported EC50: AAUAAA
[reply] 4.88 µM
